From: paper PMC10935503

Molecular target: CYP3A4 (Homo sapiens, UniProt P08684)
Sequence (P08684 whole entry): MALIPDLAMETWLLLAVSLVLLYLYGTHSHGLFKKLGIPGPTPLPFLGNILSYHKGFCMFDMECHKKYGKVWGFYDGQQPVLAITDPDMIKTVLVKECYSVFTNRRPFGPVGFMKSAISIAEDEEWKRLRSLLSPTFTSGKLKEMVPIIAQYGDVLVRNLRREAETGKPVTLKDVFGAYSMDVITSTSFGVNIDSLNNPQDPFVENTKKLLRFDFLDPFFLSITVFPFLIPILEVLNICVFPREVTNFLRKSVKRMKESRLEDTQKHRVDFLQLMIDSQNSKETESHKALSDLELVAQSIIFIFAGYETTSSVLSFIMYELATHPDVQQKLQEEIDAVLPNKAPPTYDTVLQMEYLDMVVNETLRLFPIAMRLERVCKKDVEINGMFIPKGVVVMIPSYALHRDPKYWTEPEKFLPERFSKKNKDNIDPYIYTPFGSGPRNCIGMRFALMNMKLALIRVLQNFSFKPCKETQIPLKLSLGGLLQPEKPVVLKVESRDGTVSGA
pIC50: −log10 of the molar value.
READOUT_LABEL: pIC50

INSERT INTO measurements (molecule, value_reported) VALUES
  ('Cc1cc(/C=C/C#N)cc(C)c1Oc1nc(NC2CCN(Cc3ccc(S(N)(=O)=O)cc3)CC2)nc2c1SCCC2 [compound 23h]', 4.87);

---

Measured AUC(0-t) by item
Assay: In vivo pharmacokinetics in SD rats
Parameters: species or system Sprague–Dawley (SD) rats
Conditions: Sprague-Dawley, rat, plasma, iv, 2 mg/kg
READOUT_LABEL: AUC(0-t)

INSERT INTO measurements (molecule, readout_label, value_reported) VALUES
  ('Cc1cc(C#N)cc(C)c1Oc1nc(Nc2ccc(C#N)cc2)nc(N)c1Br [ETR, etravirine, reference compound]', 'AUC(0-t)', '576 ng·h/mL'),
  ('Cc1cc(/C=C/C#N)cc(C)c1Oc1nc(NC2CCN(Cc3ccc(S(N)(=O)=O)cc3)CC2)nc2c1SCCC2 [compound 23h]', 'AUC(0-t)', '1150 ng·h/mL');
